TARGET: mouse PPARγ ligand-binding site (Mus musculus, UniProt P37238)
Construct: expressed in transfected cells; host or cells: CV-1 cells (African green monkey kidney)
ASSAY EXPLANATION: Measurement of PPARγ ligand activity (GAL4 chimera luciferase reporter in CV-1 cells)
Assay type: cell-based
EXPERIMENTAL PARAMETERS: added concentration 2 μg/ml; CV-1 cells, 24 hours; specific activity relative to untreated control (DMSO) = 1.00
OBSERVABLE: PPARγ ligand activity

Check out these entries, answers already filled in.
Let me know recorded PPARγ ligand activity for COc1cc2oc(=O)c(-c3ccc(O)cc3O)cc2c(OC)c1CC=C(C)C , thanks.
2.81

Let me know recorded PPARγ ligand activity for COc1c(/C=C/C(=O)c2ccc(O)cc2)ccc(O)c1CC=C(C)C , thanks.
1.84

Let me know recorded PPARγ ligand activity for CC1(C)C=Cc2c(ccc(C3COc4c(ccc5c4C=CC(C)(C)O5)C3)c2O)O1 (stereo not drawn) , thanks.
1.04

Let me know recorded PPARγ ligand activity for COc1cc2c(c(OC)c1CC=C(C)C)CC(c1ccc(O)cc1O)CO2 (stereo not drawn) , thanks.
3.22

A: CC1(C)C=Cc2c(O)ccc(C3=Cc4ccc(O)cc4OC3)c2O1
B: COc1c(-c2ccc(O)cc2)oc2cc(O)c(CC=C(C)C)c(O)c2c1=O
Sorting by PPARγ ligand activity in descending order, would A or B appear first? Answer by stating the label of the chosen item.
B
(B: 2.56, A: 1.78)

====

TARGET: mouse PPARγ ligand-binding site (Mus musculus, UniProt P37238)
Construct: expressed in transfected cells; host or cells: CV-1 cells (African green monkey kidney)
Sequence (P37238 174-475 isoform P37238-2): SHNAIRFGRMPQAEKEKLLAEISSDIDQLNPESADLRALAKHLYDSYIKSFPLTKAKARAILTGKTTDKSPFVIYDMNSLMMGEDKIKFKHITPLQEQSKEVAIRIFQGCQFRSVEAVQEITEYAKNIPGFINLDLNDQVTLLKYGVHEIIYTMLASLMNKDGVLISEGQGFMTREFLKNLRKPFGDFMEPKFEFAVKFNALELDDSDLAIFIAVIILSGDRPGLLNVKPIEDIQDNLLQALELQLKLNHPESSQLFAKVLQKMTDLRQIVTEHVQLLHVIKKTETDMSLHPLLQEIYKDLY
ASSAY EXPLANATION: Measurement of PPARγ ligand activity (GAL4 chimera luciferase reporter in CV-1 cells)
Type: cell-based
EXPERIMENTAL PARAMETERS: added concentration 2 μg/ml; CV-1 cells, 24 hours; specific activity relative to untreated control (DMSO) = 1.00
OBSERVABLE: PPARγ ligand activity

Check out these entries, answers already filled in.
Let me know recorded PPARγ ligand activity for CC(C)=CCc1c(O)cc(O)c2c(=O)c(-c3ccc(O)cc3)coc12 , thanks.
1.67

Let me know recorded PPARγ ligand activity for CC(C)=CCc1cc(C(=O)CC(=O)c2cc(CC=C(C)C)c(O)cc2O)ccc1O , thanks.
1.44

I: COc1c2c(cc(O)c1CC=C(C)C)OCC(c1ccc(O)cc1O)=C2 [Compound 7, Dehydroglyasperin C]
II: COc1c(-c2ccc(O)cc2)oc2cc(O)cc(O)c2c1=O
Sorting by PPARγ ligand activity in descending order, would I or II appear first? Answer by stating the label of the chosen item.
I

1: CC1(C)C=Cc2cc(-c3coc4cc(O)cc(O)c4c3=O)cc(O)c2O1
2: COc1cc2c(c(OC)c1CC=C(C)C)C=C(c1ccc(O)cc1O)CO2
Input pair: 1 , 2 . Output: entry with lower PPARγ ligand activity. Answer by stating the label of the chosen item.
1
(1: 1.86, 2: 2.95)

====

TARGET: mouse PPARγ ligand-binding site (Mus musculus, UniProt P37238)
Construct: expressed in transfected cells; host or cells: CV-1 cells (African green monkey kidney)
ASSAY EXPLANATION: Measurement of PPARγ ligand activity (GAL4 chimera luciferase reporter in CV-1 cells)
Assay type: cell-based
EXPERIMENTAL PARAMETERS: added concentration 10 μg/ml; CV-1 cells, 24 hours; specific activity relative to untreated control (DMSO) = 1.00
OBSERVABLE: PPARγ ligand activity

Check out these entries, answers already filled in.
Let me know recorded PPARγ ligand activity for COc1c(CC=C(C)C)c(O)cc2oc(=O)c(-c3ccc(O)cc3O)cc12 [Compound 1, Glycycoumarin] , thanks.
3.82

Let me know recorded PPARγ ligand activity for O=C(/C=C/c1ccc(O)cc1)c1ccc(O)cc1O [Compound 13, Isoliquiritigenin] , thanks.
3.39

Let me know recorded PPARγ ligand activity for COc1cc(O)cc2c1C(=O)C(c1cc(O)c3c(c1)C=CC(C)(C)O3)CO2 (stereo not drawn) [Compound 9, Glycyrrhisoflavanone] , thanks.
4.68

Let me know recorded PPARγ ligand activity for CC1(C)[C@@H](O)CC[C@]2(C)[C@H]3C(=O)C=C4[C@@H]5C[C@@](C)(C(=O)O)CC[C@]5(C)CC[C@@]4(C)[C@]3(C)CC[C@@H]12 [Glycyrrhetinic acid, glycyrrhetinic acid, reference compound] , thanks.
0.97

Let me know recorded PPARγ ligand activity for CC(C)=CCc1c(O)cc(O)c2c(=O)c(-c3ccc(O)cc3)coc12 [Compound 10, Lupiwighteone] , thanks.
3.75

A: COc1cc2c(c(OC)c1CC=C(C)C)CC(c1ccc(O)cc1O)CO2 (stereo not drawn) [Compound 11, Glyasperin D]
B: COc1c(-c2ccc(O)cc2)oc2cc(O)c(CC=C(C)C)c(O)c2c1=O [Compound 16, Topazolin]
C: CC1(C)C=Cc2c(ccc3c2OC[C@@H](c2ccc(O)cc2O)C3)O1 [Compound 18, Glabridin]
# ascending order, key=PPARγ ligand activity Give your ranking as a list of the labels in the requested order.
C, A, B
(C: 1.98, A: 4.06, B: 5.84)

I: COc1c(/C=C/C(=O)c2ccc(O)cc2)ccc(O)c1CC=C(C)C [Compound 26, Licochalcone C]
II: COc1cc(O)ccc1/C=C/C(=O)c1ccc(O)cc1 [Compound 5, Echinatin]
Sorting by PPARγ ligand activity in descending order, would I or II appear first? Answer by stating the label of the chosen item.
I

====

TARGET: mouse PPARγ ligand-binding site (Mus musculus, UniProt P37238)
Construct: expressed in transfected cells; host or cells: CV-1 cells (African green monkey kidney)
ASSAY EXPLANATION: Measurement of PPARγ ligand activity (GAL4 chimera luciferase reporter in CV-1 cells)
Assay type: cell-based
EXPERIMENTAL PARAMETERS: added concentration 5 μg/ml; CV-1 cells, 24 hours; specific activity relative to untreated control (DMSO) = 1.00
OBSERVABLE: PPARγ ligand activity

Check out these entries, answers already filled in.
Let me know recorded PPARγ ligand activity for CC(C)=CCc1c(O)cc2oc(-c3ccc(O)cc3)c(O)c(=O)c2c1O [Compound 15, Licoflavonol] , thanks.
2.27

Let me know recorded PPARγ ligand activity for CC(C)=CCc1c(O)cc(O)c2c(=O)c(-c3ccc(O)cc3)coc12 [Compound 10, Lupiwighteone] , thanks.
2.53

Let me know recorded PPARγ ligand activity for CC1(C)C=Cc2c(ccc3c2OC[C@@H](c2ccc(O)cc2O)C3)O1 [Compound 18, Glabridin] , thanks.
2.15

Let me know recorded PPARγ ligand activity for COc1c2c(cc(O)c1CC=C(C)C)OCC(c1ccc(O)cc1O)=C2 [Compound 7, Dehydroglyasperin C] , thanks.
3.73

I: COc1cc2c(c(OC)c1CC=C(C)C)CC(c1ccc(O)cc1O)CO2 (stereo not drawn) [Compound 11, Glyasperin D]
II: COc1c(/C=C/C(=O)c2ccc(O)cc2)ccc(O)c1CC=C(C)C [Compound 26, Licochalcone C]
III: CC1(C)[C@@H](O)CC[C@]2(C)[C@H]3C(=O)C=C4[C@@H]5C[C@@](C)(C(=O)O)CC[C@]5(C)CC[C@@]4(C)[C@]3(C)CC[C@@H]12 [Glycyrrhetinic acid, glycyrrhetinic acid, reference compound]
IV: CC1(C)C=Cc2c(ccc(C3COc4c(ccc5c4C=CC(C)(C)O5)C3)c2O)O1 (stereo not drawn) [Compound 20, Hispaglabridin B]
// ranking: key=PPARγ ligand activity, reverse=True Give your ranking as a list of the labels in the requested order.
I, II, IV, III

1: CC(C)=CCc1cc(C(=O)CC(=O)c2cc(CC=C(C)C)c(O)cc2O)ccc1O [Compound 27, Glycyrdione A]
2: COc1c(-c2ccc(O)cc2)oc2cc(O)c(CC=C(C)C)c(O)c2c1=O [Compound 16, Topazolin]
3: COc1ccc(C2COc3c(ccc4c3C=CC(C)(C)O4)C2)c(O)c1 (stereo not drawn) [Compound 21, 4′-O-Methylglabridin]
# ascending order, key=PPARγ ligand activity Give your ranking as a list of the labels in the requested order.
3, 1, 2

A: CC(C)=CCc1cc(-c2oc3cc(O)cc(O)c3c(=O)c2O)ccc1O [Compound 6, Isolicoflavonol]
B: C=CC(C)(C)c1cc(/C=C/C(=O)c2ccc(O)cc2)c(OC)cc1O [Compound 24, Licochalcone A]
C: CC(C)=CCc1cc(C(=O)CC(=O)c2cc3c(cc2O)OC(C)(C)C=C3)ccc1O [Compound 28, Glycyrdione C]
// ranking: key=PPARγ ligand activity, reverse=True Give your ranking as a list of the labels in the requested order.
B, A, C
(B: 4.14, A: 2.50, C: 1.48)

P: COc1c(CC=C(C)C)c(O)cc2oc(=O)c(-c3ccc(O)cc3O)cc12 [Compound 1, Glycycoumarin]
Q: COc1c(/C=C/C(=O)c2ccc(O)cc2)ccc(O)c1O [Compound 25, Licochalcone B]
Input pair: P , Q . Output: entry with lower PPARγ ligand activity. Answer by stating the label of the chosen item.
Q
